# maps each entry to its -logMIC
System: Escherichia coli
Assay overview: Antibacterial activity against Escherichia coli ATCC 25835 after 24 hrs by twofold serial dilution method
Format: functional

Check out these entries, answers already filled in.
{"columns": ["Smiles repr", "Quantity", "Observed result"],
 "data": [
  ["C[C@@H]1/C(=N\\NC(=S)Nc2ccccc2)[C@@H](C)[C@H](c2cccc(Cl)c2)O[C@@H]1c1cccc(Cl)c1", "-logMIC", 4],
  ["COc1ccc([C@H]2O[C@@H](c3ccc(OC)cc3)[C@H](C)/C(=N/NC(=S)Nc3ccccc3)[C@H]2C)cc1", "-logMIC", 4.602],
  ["C[C@@H]1/C(=N\\NC(N)=S)[C@@H](C)[C@H](c2ccc(Br)cc2)O[C@@H]1c1ccc(Br)cc1", "-logMIC", 4.301]
]}

Pending compound:
**Query** Supply -logMIC value. Item: "Cc1ccc([C@H]2O[C@@H](c3ccc(C)cc3)[C@H](C)/C(=N/NC(N)=S)[C@H]2C)cc1"
**Result** 4.602

* * *

# maps each entry to its -logMIC
System: Escherichia coli
Assay overview: Antibacterial activity against Escherichia coli ATCC 25835 after 24 hrs by twofold serial dilution method
Format: functional
Write no unit; give the number alone.

Check out these entries, answers already filled in.
{"columns": ["Smiles repr", "-logMIC"],
 "data": [
  ["CC[C@@H]1/C(=N/NC(N)=S)C[C@@H](c2ccccc2)O[C@H]1c1ccccc1", 4.602],
  ["Cc1ccc([C@H]2O[C@@H](c3ccc(C)cc3)[C@H](C)/C(=N/NC(=S)Nc3ccccc3)[C@H]2C)cc1", 4.301],
  ["C[C@@H]1/C(=N\\NC(N)=S)[C@@H](C)[C@H](c2ccc(F)cc2)O[C@@H]1c1ccc(F)cc1", 4.301]
]}

Pending compound:
**Query** Supply -logMIC value. Item: "CC[C@@H]1/C(=N/NC(=S)Nc2ccccc2)C[C@@H](c2ccccc2)O[C@H]1c1ccccc1"
**Result** 4

* * *

# maps each entry to its -logMIC
System: Candida albicans
Assay overview: Antifungal activity against Candida albicans after 24 hrs by twofold serial dilution method
Format: functional

Check out these entries, answers already filled in.
{"columns": ["Smiles repr", "Quantity", "Observed result"],
 "data": [
  ["C[C@@H]1/C(=N/NC(=S)Nc2ccccc2)C[C@@H](c2ccccc2)O[C@H]1c1ccccc1", "-logMIC", 4],
  ["C[C@@H]1/C(=N/NC(N)=S)C[C@@H](c2ccccc2)O[C@H]1c1ccccc1", "-logMIC", 3.698],
  ["COc1ccc([C@H]2O[C@@H](c3ccc(OC)cc3)[C@H](C)/C(=N/NC(N)=S)[C@H]2C)cc1", "-logMIC", 4.903]
]}

**Query** Supply -logMIC value. Item: "Cc1ccc([C@H]2O[C@@H](c3ccc(C)cc3)[C@H](C)/C(=N/NC(N)=S)[C@H]2C)cc1"
**Result** 4

* * *

Tested on: Pseudomonas aeruginosa
Assay overview: Antibacterial activity against Pseudomonas aeruginosa ATCC 10145 after 24 hrs by twofold serial dilution method
Format: functional
Quantity: -logMIC
Write no unit; give the number alone.

{"columns": ["Smiles repr", "Quantity", "Observed result"],
 "data": [
  ["C[C@@H]1/C(=N\\NC(N)=S)[C@@H](C)[C@H](c2ccc(F)cc2)O[C@@H]1c1ccc(F)cc1", "-logMIC", 4],
  ["CC[C@@H]1/C(=N/NC(=S)Nc2ccccc2)C[C@@H](c2ccccc2)O[C@H]1c1ccccc1", "-logMIC", 4.602],
  ["COc1cccc([C@H]2O[C@@H](c3cccc(OC)c3)[C@H](C)/C(=N/NC(=S)Nc3ccccc3)[C@H]2C)c1", "-logMIC", 3.698],
  ["C[C@@H]1/C(=N\\NC(=S)Nc2ccccc2)[C@@H](C)[C@H](c2ccc(Cl)cc2)O[C@@H]1c1ccc(Cl)cc1", "-logMIC", 5.204],
  ["C[C@@H]1/C(=N\\NC(=S)Nc2ccccc2)[C@@H](C)[C@H](c2ccccc2Cl)O[C@@H]1c1ccccc1Cl", "-logMIC", 4.301]
]}

**Query** Retrieve -logMIC on Pseudomonas aeruginosa; query "C[C@@H]1/C(=N\NC(=S)Nc2ccccc2)[C@@H](C)[C@H](c2cccc(Cl)c2)O[C@@H]1c1cccc(Cl)c1"
**Result** 4.602

**Query** Retrieve -logMIC on Pseudomonas aeruginosa; query "COc1ccc([C@H]2O[C@@H](c3ccc(OC)cc3)[C@H](C)/C(=N/NC(N)=S)[C@H]2C)cc1"
**Result** 4.301

**Query** Retrieve -logMIC on Pseudomonas aeruginosa; query "Cc1ccc([C@H]2O[C@@H](c3ccc(C)cc3)[C@H](C)/C(=N/NC(=S)Nc3ccccc3)[C@H]2C)cc1"
**Result** 4

**Query** Retrieve -logMIC on Pseudomonas aeruginosa; query "C[C@@H]1/C(=N/NC(=S)Nc2ccccc2)C[C@@H](c2ccccc2)O[C@H]1c1ccccc1"
**Result** 4.301
